The values you see were collected from patent USRE47150.

# koff per entry
- testSystem: T1, human tissue factor pathway inhibitor (TFPI) (human, UniProt P10646 29-304, limits assumed)
- T1 construct: bought; also called hTFPI; human TFPI
- T1 sequence (looked up): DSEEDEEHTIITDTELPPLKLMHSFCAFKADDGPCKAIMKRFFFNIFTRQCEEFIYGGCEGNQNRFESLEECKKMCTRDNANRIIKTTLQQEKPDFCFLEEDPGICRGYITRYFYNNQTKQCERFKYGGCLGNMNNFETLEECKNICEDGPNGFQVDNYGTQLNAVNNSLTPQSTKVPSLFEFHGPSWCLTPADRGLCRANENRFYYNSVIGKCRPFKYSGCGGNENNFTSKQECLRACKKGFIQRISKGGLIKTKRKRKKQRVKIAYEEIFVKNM
- assayDetails: SPR, TFPI immobilized
Include the unit after the number when you answer.

Consider the worked cases shown below.
B27.1 (4B7 HC N32D+D62R+Y112D/LC N35T+D97T) (Fab, V domains shown) VH: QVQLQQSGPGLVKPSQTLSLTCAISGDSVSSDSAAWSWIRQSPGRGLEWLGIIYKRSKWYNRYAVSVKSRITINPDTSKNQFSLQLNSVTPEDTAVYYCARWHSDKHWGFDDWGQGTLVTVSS VL: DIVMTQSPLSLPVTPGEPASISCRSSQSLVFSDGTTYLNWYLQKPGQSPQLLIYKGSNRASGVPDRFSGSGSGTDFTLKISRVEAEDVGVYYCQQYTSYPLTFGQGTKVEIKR ... 3.53e-05 s⁻¹
4B7 wild-type Fab (Fab, V domains shown, Fab with HA (or c-myc) and 6xHis tag at the C-terminus of the heavy chain; also called 4B7wt; parental 4B7) VH: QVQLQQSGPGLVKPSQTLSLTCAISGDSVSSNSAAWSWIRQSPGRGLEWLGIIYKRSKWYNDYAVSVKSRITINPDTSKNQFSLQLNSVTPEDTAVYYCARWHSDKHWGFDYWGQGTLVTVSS VL: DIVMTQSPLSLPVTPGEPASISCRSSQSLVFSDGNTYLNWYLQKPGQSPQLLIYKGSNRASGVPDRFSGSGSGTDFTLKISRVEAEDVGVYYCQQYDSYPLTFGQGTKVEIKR ... 0.0084 s⁻¹

Now turn to the next binder.
The binder listed as B2.0 (4B7 HC N32D+D62R+Y112D/LC S32R+D33F+N35I+D97T) (Fab, V domains shown) VH: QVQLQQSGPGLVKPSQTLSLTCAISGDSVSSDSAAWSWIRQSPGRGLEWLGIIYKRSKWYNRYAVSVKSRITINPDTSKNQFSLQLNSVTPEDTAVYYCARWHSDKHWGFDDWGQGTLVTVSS VL: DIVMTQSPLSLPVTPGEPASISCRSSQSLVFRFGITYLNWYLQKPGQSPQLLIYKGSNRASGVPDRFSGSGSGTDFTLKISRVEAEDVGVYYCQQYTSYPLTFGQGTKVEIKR shows koff equal to 3.81e-05 s⁻¹
